All figures here come from patent US20110097773A1.

Catalogue of % KP values
# Measurement Notes: Partition coefficient for isobutanol between extractant (organic phase) and fermentation medium (aqueous phase)
# Assay type: physicochemical
# Measurement Context: isobutanol partition coefficient (organic/aqueous) as percentage of average value for oleyl alcohol (Comparative Example A); 40 g/L initial isobutanol, 30° C.
# unit: % | format: bare number

The following molecules have reported results that may help.
[[record]]
molecule = "CCCCCCCCCCO [Comparative Ex. F, 1-Decanol]"
reported_value = 139.0

[[record]]
molecule = "CCCCCCCC/C=C\\CCCCCCCCO [Comparative Ex. A, Oleyl Alcohol]"
reported_value = 100


Notebook: CCCCCCCCCCCO [Comparative Ex. C, 1-Undecanol] , % KP read as 127.0

Notebook: CCCCCCCCC=O [Comparative Ex. E, 1-Nonanal] , % KP read as 132.6

Notebook: CCCCCCCCCC(C)O (centres unmarked) [Comparative Ex. D, 2-Undecanol] , % KP read as 139.0
